tested on: NOMO1; assay: cell viability relative to DMSO control; higher = less cytotoxic; conditions: HPLM + 10% dialyzed FBS; 48 h; 0.19 µM
READOUT_NAME: cell viability (%)

smiles_repr=CCC[C@@H]1C[C@@H](C(=O)N[C@@H]([C@H]2O[C@H](SC)[C@H](O)[C@@H](O)[C@H]2O)[C@@H](C)O)N(C)C1.Cl readout_name="cell viability" reported_measurement=128
smiles_repr=O=C1Nc2ccccc2/C1=C1\Nc2ccccc2C1=O readout_name="cell viability" reported_measurement=97.7
smiles_repr=O=C(NC1CCNCC1)c1n[nH]cc1NC(=O)c1c(Cl)cccc1Cl readout_name="cell viability" reported_measurement=127
smiles_repr=C[C@H](NC(=O)C(=O)Nc1ccccc1C(C)(C)C)C(=O)N[C@@H](CC(=O)O)C(=O)COc1c(F)c(F)cc(F)c1F readout_name="cell viability" reported_measurement=137
smiles_repr=Cl.c1cnc2cc3c(cc2n1)C1CNCC3C1 readout_name="cell viability" reported_measurement=126
smiles_repr=O=C(Nc1ccc(OC(F)(F)F)cc1)c1sccc1NCc1ccnc2ccccc12 readout_name="cell viability" reported_measurement=110
smiles_repr=COc1ccc(/C=C\c2cc(OC)c(OC)c(OC)c2)cc1O readout_name="cell viability" reported_measurement=47
smiles_repr=COc1cc2nccc(Oc3ccc(NC(=O)Nc4cc(C)on4)c(Cl)c3)c2cc1OC readout_name="cell viability" reported_measurement=116
smiles_repr=CC#C[C@]1(O)CC[C@H]2[C@@H]/3CCC/4=C/C(=O)CCC4=C3[C@H](C[C@]12C)C5=CC=C(C=C5)N(C)C readout_name="cell viability" reported_measurement=96.1
smiles_repr=O=C/1\C=C(/OC(=C1)/C2=C3SC4=C(SC3=CC=C2)C=CC=C4)N5CCOCC5 readout_name="cell viability" reported_measurement=103
smiles_repr=C#Cc1cccc(Nc2ncnc3cc(OCCOC)c(OCCO)cc23)c1 readout_name="cell viability" reported_measurement=116
smiles_repr=C[N]1C=NC=C1[C@@](N)(C2=CC=C(Cl)C=C2)C3=CC=C4N(C)C(=O)\C=C(\C5=CC=CC(=C5)Cl)C4=C3 readout_name="cell viability" reported_measurement=95.4
smiles_repr=C[C@@H]1CC[C@@]2(OC1)O[C@H]3C[C@H]4[C@@H]5C/C=C6/C[C@H](CC[C@]6(C)[C@H]5CC[C@]4(C)[C@H]3[C@@H]2C)O[C@@H]7O[C@H](CO)[C@@H](O[C@@H]8O[C@@H](C)[C@H](O)[C@@H](O)[C@H]8O)[C@H](O)[C@H]7O[C@@H]9O[C@@H](C)[C@H](O)[C@@H](O)[C@H]9O readout_name="cell viability" reported_measurement=136
smiles_repr=CC(=O)N1CCN(c2ccc(OCc3nn(C)c(C)c3-c3cccc4c(CCCOc5cc(C)c(Cl)c(C)c5)c(C(=O)O)n(Cc5cccnc5)c34)cc2)CC1 readout_name="cell viability" reported_measurement=130

###

# cell viability annotations
system: NOMO1; test: cell viability relative to DMSO control; higher = less cytotoxic; settings: RPMI 5 mM glucose + 10% dialyzed FBS; 48 h; 0.000781 µM
READOUT_NAME: cell viability (%)

compound=O=[N+]([O-])c1cn2c(n1)OC[C@@H](OCc1ccc(OC(F)(F)F)cc1)C2 unit_abbreviation=% reported_measurement=120
compound=O=C1c2c(O)cccc2[C@H]([C@@H]2O[C@H](CO)[C@@H](O)[C@H](O)[C@H]2O)c2cc(CO)cc(O)c21 unit_abbreviation=% reported_measurement=84.7
compound=COc1cc2c(N3CCN(C(=O)Nc4ccc(OC(C)C)cc4)CC3)ncnc2cc1OCCCN1CCCCC1 unit_abbreviation=% reported_measurement=79.3
compound=COC[C@H](NC(=O)c1cnc(C)s1)C(=O)N[C@@H](COC)C(=O)N[C@@H](Cc1ccccc1)C(=O)[C@@]1(C)CO1 unit_abbreviation=% reported_measurement=98.8
compound=CNC(=O)c1cccc(-c2ccc3c(N4CCOC[C@@H]4C)nc(N4CCOC[C@@H]4C)nc3n2)c1 unit_abbreviation=% reported_measurement=83.7
compound=C=C(C)[C@@H]1CC[C@]2(C)CC[C@]3(C)[C@H](CC[C@@H]4[C@@]5(C)CC[C@H](O)C(C)(C)[C@@H]5CC[C@]43C)[C@@H]12 unit_abbreviation=% reported_measurement=113
compound=COc1ccc(/C=C\c2cc(OC)c(OC)c(OC)c2)cc1O unit_abbreviation=% reported_measurement=37.3
compound=CN(C)CCOC(c1ccccc1)c1ccccc1 unit_abbreviation=% reported_measurement=94.6
compound=Fc1cc(-c2cccc3ncc(-c4cnn(C5CCNCC5)c4)nc23)cc(F)c1CN1CCOCC1 unit_abbreviation=% reported_measurement=128
compound=CC(C)(C)OC(=O)CN(Cc1ccc(Cl)cc1)Cc1ccc([N+](=O)[O-])s1 unit_abbreviation=% reported_measurement=107
compound=C[C@@H]1C[C@H]2[C@@H]3\C=C(C)/C4=C/C5=C(C[C@]4(C)[C@H]3[C@@H](O)C[C@]2(C)[C@@]1(O)C(=O)COC(C)=O)C=N[N]5C6=CC=CC=C6 unit_abbreviation=% reported_measurement=127
compound=CSC1=CC(=CC=C1)NC2=NC3=C(C=N2)/C=C(C(=O)N3C)/C4=C(Cl)C=CC=C4Cl unit_abbreviation=% reported_measurement=84.7
compound="CN(N=O)C(=O)N[C@H]1C(O)OC(CO)[C@@H](O)[C@@H]1O (some centres not stated)" unit_abbreviation=% reported_measurement=69.3
compound=CC#C[C@]1(O)CC[C@H]2[C@@H]/3CCC/4=C/C(=O)CCC4=C3[C@H](C[C@]12C)C5=CC=C(C=C5)N(C)C unit_abbreviation=% reported_measurement=90.7
compound=CC(C)(C)/[N+]([O-])=C/c1ccc([S+](=O)([O-])[O][Na])cc1[S+](=O)([O-])[O][Na] unit_abbreviation=% reported_measurement=94
compound=O=C1NC(=O)[C@@H](c2cn3c4c(cccc24)CCC3)[C@@H]1c1c[nH]c2ccccc12 unit_abbreviation=% reported_measurement=93.1
compound=Clc1ccc(C2(c3ccc(-c4cn[nH]c4)cc3)CCNCC2)cc1 unit_abbreviation=% reported_measurement=86.7
